System: Candida parapsilosis
Assay: Antifungal activity against Candida parapsilosis after 48 hrs by CLSI method
Format: functional
Details: Lodderomyces parapsilosis
*1 amine or outer side, *2 acyl side, *3 side chain or, on linkers, in order; H or OH if unused. Where a SMILES comes first, the peptide text is derived from it. Bridges are numbered along the chain shown (N, C = ends). [ ]: non-standard residue; d: D form. The star is where a group is joined. hTyr(3S-OH,4S-OH,3'-OSO3H) = N[C@H](C(=O)O)[C@H](O)[C@@H](O)c1ccc(O)c(OS(=O)(=O)O)c1; Orn(4R-OH,5R-OH) = O=C([C@H](C[C@@H](O)[C@@H](O)N[*:3])N[*:1])[*:2]; Pro(3S-OH,4S-Me) = C[C@H]1CN[C@H](C(=O)O)[C@H]1O; X1 = CCCCCOc1ccc(-c2cc(-c3ccc(C(=O)*)cc3)no2)cc1; Gln(3R-OH) = NC(=O)C[C@@H](O)[C@H](N)C(=O)O; Hyp = O=C(O)[C@@H]1C[C@@H](O)CN1
assay metric: MIC50 (µg/mL)
Lab book: enter the figure in µg/mL, no units written.

Exercise: For the molecule CCCCCOc1ccc(-c2cc(-c3ccc(C(=O)N[C@H]4C[C@@H](O)[C@@H](O)NC(=O)[C@@H]5[C@@H](O)[C@@H](C)CN5C(=O)[C@H]([C@H](O)CC(N)=O)NC(=O)[C@H]([C@H](O)[C@@H](O)c5ccc(O)c(OS(=O)(=O)O)c5)NC(=O)[C@@H]5C[C@@H](O)CN5C(=O)[C@H]([C@@H](C)O)NC4=O)cc3)no2)cc1 [MICAFUNGIN] (X1-[Orn(4R-OH,5R-OH)]T[Hyp][hTyr(3S-OH,4S-OH,3'-OSO3H)][Gln(3R-OH)][Pro(3S-OH,4S-Me)]; lactam 1-C) , report MIC50.
Solution: 2

* * *

System: Candida parapsilosis
Test: Antifungal activity against Candida parapsilosis after 48 hrs by CLSI method
Format: functional
Details: Lodderomyces parapsilosis
*1 amine or outer side, *2 acyl side, *3 side chain or, on linkers, in order; H or OH if unused. Where a SMILES comes first, the peptide text is derived from it. Bridges are numbered along the chain shown (N, C = ends). [ ]: non-standard residue; d: D form. The star is where a group is joined. pTerphenylCO(4''-OnC5H11) = CCCCCOc1ccc(-c2ccc(-c3ccc(C(=O)*)cc3)cc2)cc1; Orn(4R-OH,5R-OH) = O=C([C@H](C[C@@H](O)[C@@H](O)N[*:3])N[*:1])[*:2]; hTyr(3S-OH,4S-OH) = N[C@H](C(=O)O)[C@H](O)[C@@H](O)c1ccc(O)cc1; Pro(3S-OH,4S-Me) = C[C@H]1CN[C@H](C(=O)O)[C@H]1O; Hyp = O=C(O)[C@@H]1C[C@@H](O)CN1
// reported MIC90 for each item listed
Lab book: enter the figure in µg/mL, no units written.

| molecule | subject of test | data value |
| --- | --- | --- |
| C[C@@H](c1ncncc1F)[C@](O)(Cn1cncn1)c1ccc(F)cc1F | Candida parapsilosis | 0.06 |

Exercise: Look up Candida parapsilosis data: MIC90 of CCCCCOc1ccc(-c2ccc(-c3ccc(C(=O)N[C@H]4C[C@@H](O)[C@@H](O)NC(=O)[C@@H]5[C@@H](O)[C@@H](C)CN5C(=O)[C@H]([C@@H](C)O)NC(=O)[C@H]([C@H](O)[C@@H](O)c5ccc(O)cc5)NC(=O)[C@@H]5C[C@@H](O)CN5C(=O)[C@H]([C@@H](C)O)NC4=O)cc3)cc2)cc1 [ANIDULAFUNGIN] ({pTerphenylCO(4''-OnC5H11)}-[Orn(4R-OH,5R-OH)]T[Hyp][hTyr(3S-OH,4S-OH)]T[Pro(3S-OH,4S-Me)]; lactam 1-C) , then report it.
Solution: 2
